# Subject Of Test: Tel-FGFR4 (Homo sapiens (Human))
# Sequence (P22455 other isoform, or with tags, fused parts or gaps): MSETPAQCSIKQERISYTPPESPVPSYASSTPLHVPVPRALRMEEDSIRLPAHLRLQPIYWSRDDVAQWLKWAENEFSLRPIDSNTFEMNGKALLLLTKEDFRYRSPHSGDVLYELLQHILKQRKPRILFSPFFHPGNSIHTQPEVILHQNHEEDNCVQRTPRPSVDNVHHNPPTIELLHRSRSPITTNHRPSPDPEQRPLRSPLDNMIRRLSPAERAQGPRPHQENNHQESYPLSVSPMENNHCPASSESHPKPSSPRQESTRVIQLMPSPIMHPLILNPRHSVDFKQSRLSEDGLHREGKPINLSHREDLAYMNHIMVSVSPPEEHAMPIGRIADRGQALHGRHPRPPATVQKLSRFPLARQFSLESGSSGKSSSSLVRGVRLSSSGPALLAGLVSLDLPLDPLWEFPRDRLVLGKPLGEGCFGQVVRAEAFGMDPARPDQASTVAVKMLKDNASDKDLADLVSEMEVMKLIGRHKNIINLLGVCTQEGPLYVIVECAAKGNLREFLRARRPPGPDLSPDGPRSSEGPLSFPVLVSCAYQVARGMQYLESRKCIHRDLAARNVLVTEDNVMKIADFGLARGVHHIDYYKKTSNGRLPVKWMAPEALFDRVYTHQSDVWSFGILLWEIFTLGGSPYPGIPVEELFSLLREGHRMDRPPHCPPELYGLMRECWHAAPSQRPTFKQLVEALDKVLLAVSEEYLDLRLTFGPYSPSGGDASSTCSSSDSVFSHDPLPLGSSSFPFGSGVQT
# Experiment Notes: In vitro cellular kinase assay for FGFR4 (BaF3-Tel-FGFR4 cells, MSD capture ELISA of tyrosine phosphorylation)
# Format: cell-based
# Measurement Conditions: Cellular BaF3 FGFR4 assay; read-out: Cellular IC50
Recorded IC50 by entry
# value in nM; strip the unit string

Below are worked cases with known answers.
> print(dat)
                                   molecule  units.of.measure  obs.value
1  CC(C)(O)CNc1cc(NC(=O)N2CCCc3cc(C(F)F)c(C=O)nc32)ncc1C#N                nM       10.3
2  COC[C@@H](C)Nc1cc(NC(=O)N2CCCc3cc(CN4CCOCC4=O)c(C=O)nc32)ncc1C#N                nM        4.6
3  CN1CCN(Cc2cc3c(nc2C=O)N(C(=O)Nc2cc(OCCF)c(C#N)cn2)CCC3)C(=O)C1                nM        7.1
4  CNc1cc(NC(=O)N2CCCc3cc(CN(C)C(=O)CN(C)C)c(C=O)nc32)ncc1C#N                nM       11.3
5  CC(C)Oc1cc(NC(=O)N2CCCc3cc(CO)c(C=O)nc32)ncc1C#N                nM        9.1

Notebook: CCC(=O)N(C)Cc1cc2c(nc1C=O)N(C(=O)Nc1cc(NCCOC)c(C#N)cn1)CCC2 , IC50 read as 4

# IC50 of CCNc1cc(NC(=O)N2CCCc3cc(CN4CCN(C)CC4=O)c(C=O)nc32)ncc1C#N = 12

Record summary for CCN1CCN(Cc2cc3c(nc2C=O)N(C(=O)Nc2cc(NCCOC)c(C#N)cn2)CCC3)C(=O)C1 : reported IC50 = 9.8

// N#Cc1cnc(NC(=O)N2CCCc3cc(CN4CC[C@@H](O)C4=O)c(C=O)nc32)cc1OCC(F)F : IC50 value = 7.9

For record COCCNc1cc(NC(=O)N2CCCc3cc(-c4sc(C)nc4C)c(C=O)nc32)ncc1C#N the listed IC50 is 21

IC50 in this record for COCCNc1cc(NC(=O)N2CCCc3cc(CN4CCNC(C)(C)C4=O)c(C=O)nc32)ncc1C#N : 5.9

// sample CC(=O)N(C)Cc1cc2c(nc1C=O)N(C(=O)Nc1cc(NCC3CN(C)CCO3)c(C#N)cn1)CCC2 (centres unmarked) , its IC50 was 21

Sample CC(C)Oc1cc(NC(=O)N2c3nc(C=O)c(Br)cc3CC[C@@H]2C)ncc1C#N ; IC50 observed: 95.5

----------
# Subject Of Test: FGFR4 (GST-FGFR4(388-802)) (Homo sapiens (Human))
# Sequence (P22455 388-802): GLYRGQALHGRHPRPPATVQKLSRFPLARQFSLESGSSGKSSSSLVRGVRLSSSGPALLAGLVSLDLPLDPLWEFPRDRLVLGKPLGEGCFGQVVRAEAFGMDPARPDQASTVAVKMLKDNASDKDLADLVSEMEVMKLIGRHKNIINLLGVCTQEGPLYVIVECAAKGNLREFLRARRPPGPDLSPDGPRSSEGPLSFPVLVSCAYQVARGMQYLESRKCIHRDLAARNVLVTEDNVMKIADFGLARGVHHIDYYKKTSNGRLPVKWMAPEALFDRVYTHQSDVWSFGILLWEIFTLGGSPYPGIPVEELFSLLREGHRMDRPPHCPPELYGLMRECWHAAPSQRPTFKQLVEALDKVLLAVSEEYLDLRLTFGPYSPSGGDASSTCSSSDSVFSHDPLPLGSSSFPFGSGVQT
# Experiment Notes: In-vitro biochemical kinase assay for FGFR4 (Caliper microfluidic mobility shift)
# Measurement Conditions: read-out: Biochemical FGFR4 IC50
Value Type: pIC50
# pIC50 = -log10(concentration in molar units)

# example entries with known answers
> print(dat)
                                   molecule  obs.value
1  COCCNc1cc(NC(=O)N2CCCc3cc(CN(CCN(C)C)C(C)=O)c(C=O)nc32)ncc1C#N       8.70
2  CC(C)Oc1cc(NC(=O)N2CCCc3cc(C4CCNCC4)c(C=O)nc32)ncc1C#N       8.46
3  CC(C)n1cnc2cnc(NC(=O)N3CCCc4cc(CN5CCCC5=O)c(C=O)nc43)cc21       7.02

Field pIC50 (entry COCCNc1cc(NC(=O)N2CCCc3cc(-n4ccnc4)c(C=O)nc32)ncc1C#N ) reads 8.96

Looking up O=Cc1nc2c(cc1CO)CCCN2C(=O)Nc1ccc(F)cn1 , I found its pIC50 recorded as 6.21

The molecule listed as N#Cc1ccc(NC(=O)N2CCCc3cc(C(F)F)c(C=O)nc32)nc1 shows pIC50 equal to 7.72

# molecule CC(C)Oc1cc(NC(=O)N2CCCc3cc(C4CCOC4)c(C=O)nc32)ncc1C#N (racemic) ; its pIC50 = 9.00
